test: Molar enthalpy of transition or fusion; conditions: Crystal; DSC
measured_quantity: Molar enthalpy of transition or fusion (kcal/mol)

{"columns": ["compound", "observed_value"],
 "data": [
  ["CCCC(=O)c1ccc(O)cc1 [1-(4-hydroxyphenyl)-1-butanone]", 5.73],
  ["CCCCC(=O)c1ccc(O)cc1 [1-(4-hydroxyphenyl)-1-pentanone]", 6.15],
  ["CCC(=O)c1ccc(O)cc1 [1-(4-hydroxyphenyl)-1-propanone]", 7.56],
  ["CCCCCCC(=O)c1ccc(O)cc1 [1-(4-hydroxyphenyl)-1-heptanone]", 7.5]
]}

====

details: Crystal; DTA
measured_quantity: Normal melting temperature (°C)

{"columns": ["compound", "scale_unit", "Normal melting temperature"],
 "data": [
  ["CCCC(=O)c1ccc(O)cc1 [1-(4-hydroxyphenyl)-1-butanone]", "°C", 91.6],
  ["CCCCC(=O)c1ccc(O)cc1 [1-(4-hydroxyphenyl)-1-pentanone]", "°C", 61.1]
]}

a: CCC(=O)c1ccc(O)cc1 [1-(4-hydroxyphenyl)-1-propanone]
b: CCCCCCC(=O)c1ccc(O)cc1 [1-(4-hydroxyphenyl)-1-heptanone]
Incoming: Hey, which is lower on measured Normal melting temperature, a or b ? Lab log: write the label of the selected item as the result.
Outgoing: b
(b: 92 °C, a: 148.5 °C)
